Biological target: His-tagged CRBN-DDB1 complex (Homo sapiens)
Sequence (Q96SW2 whole entry): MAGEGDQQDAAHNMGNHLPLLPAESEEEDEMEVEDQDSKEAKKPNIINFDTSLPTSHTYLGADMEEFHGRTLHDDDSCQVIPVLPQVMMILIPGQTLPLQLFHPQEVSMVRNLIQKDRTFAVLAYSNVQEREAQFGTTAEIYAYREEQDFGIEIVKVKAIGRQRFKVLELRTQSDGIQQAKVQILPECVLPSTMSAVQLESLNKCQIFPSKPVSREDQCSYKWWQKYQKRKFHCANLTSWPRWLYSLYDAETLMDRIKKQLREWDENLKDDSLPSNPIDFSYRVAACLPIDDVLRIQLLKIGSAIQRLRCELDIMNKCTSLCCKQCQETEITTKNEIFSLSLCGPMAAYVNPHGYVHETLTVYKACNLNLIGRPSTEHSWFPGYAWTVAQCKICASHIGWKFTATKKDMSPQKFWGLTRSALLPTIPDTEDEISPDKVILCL
Sequence (Q16531 whole entry partner): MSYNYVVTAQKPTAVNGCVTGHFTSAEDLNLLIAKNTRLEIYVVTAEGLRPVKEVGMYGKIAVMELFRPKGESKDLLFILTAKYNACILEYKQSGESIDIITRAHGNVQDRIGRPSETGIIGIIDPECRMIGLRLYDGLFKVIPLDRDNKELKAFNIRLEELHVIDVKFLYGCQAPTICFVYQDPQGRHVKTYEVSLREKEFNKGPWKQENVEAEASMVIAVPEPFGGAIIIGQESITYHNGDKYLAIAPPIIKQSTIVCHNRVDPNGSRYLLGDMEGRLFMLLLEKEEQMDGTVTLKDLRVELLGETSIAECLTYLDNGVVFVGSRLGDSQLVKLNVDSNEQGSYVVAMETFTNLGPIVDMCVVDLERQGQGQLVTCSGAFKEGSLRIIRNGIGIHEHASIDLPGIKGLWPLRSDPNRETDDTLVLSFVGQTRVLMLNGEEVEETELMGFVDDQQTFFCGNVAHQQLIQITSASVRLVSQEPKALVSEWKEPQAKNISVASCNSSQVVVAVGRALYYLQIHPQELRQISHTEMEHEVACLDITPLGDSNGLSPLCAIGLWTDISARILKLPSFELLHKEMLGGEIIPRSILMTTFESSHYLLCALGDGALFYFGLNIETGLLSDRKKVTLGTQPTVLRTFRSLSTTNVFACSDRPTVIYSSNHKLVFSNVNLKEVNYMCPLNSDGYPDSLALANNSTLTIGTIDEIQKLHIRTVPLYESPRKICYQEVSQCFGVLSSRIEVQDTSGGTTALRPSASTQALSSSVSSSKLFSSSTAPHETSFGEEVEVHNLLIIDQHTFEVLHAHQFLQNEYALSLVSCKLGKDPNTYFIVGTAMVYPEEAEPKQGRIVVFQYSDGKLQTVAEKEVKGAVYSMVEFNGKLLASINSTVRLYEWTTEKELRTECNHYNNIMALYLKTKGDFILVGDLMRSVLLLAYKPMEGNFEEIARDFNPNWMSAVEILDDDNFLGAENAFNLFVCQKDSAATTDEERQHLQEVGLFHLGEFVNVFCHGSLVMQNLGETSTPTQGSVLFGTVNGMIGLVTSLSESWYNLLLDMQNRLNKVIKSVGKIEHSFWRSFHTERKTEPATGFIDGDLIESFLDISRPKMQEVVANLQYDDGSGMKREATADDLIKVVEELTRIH
Experiment: Time-Resolved Fluorescence Resonance Energy Transfer (TR-FRET / HTRF) CRBN binding assay, displacement of Cy5-labeled thalidomide
Conditions: His-CRBN-DDB1, Cy5-thalidomide 8 nM, 1 hour room temperature
MEASURED_QUANTITY: IC50

molecule="O=C1NC(=O)c2cc(Oc3ccccc3)ccc2C1=O [Compound I-238]" measured_quantity=IC50 observed_value="30 to 100 µM"

Exam item: Return IC50 (reported value) for this molecule: NCCCCCCCC#Cc1cccc(Oc2cccc3c2C(=O)NC(=O)C3)c1 [Compound I-248]
Marked response: > 100 µM

Exam item: Return IC50 (reported value) for this molecule: O=C1Cc2cccc(Oc3cccc4ccccc34)c2C(=O)N1 [Compound I-275]
Marked response: 10 to 30 µM

Exam item: Return IC50 (reported value) for this molecule: O=C1NC(=O)[C@@H]2CNC[C@H]12 [Compound I-327]
Marked response: > 100 µM

Exam item: Return IC50 (reported value) for this molecule: O=C1CC2(CCN(c3cccc(F)c3)CC2)CC(=O)N1 [Compound I-99]
Marked response: > 100 µM
